System: Nakaseomyces glabratus
Assay: Antimicrobial activity against Candida glabrata isolate 46 after 48 hrs by microdilution broth method
Format: functional
Test readout: MIC

Worked examples, 6 compounds total:
Observed MIC on Nakaseomyces glabratus, entry `Cc1ccc(S(=O)(=O)/N=[N+](\[O-])c2c(-c3cccs3)nn(C)c2C)cc1` , equals > 128 µg/mL

Observed MIC on Nakaseomyces glabratus, entry `CC[C@@H]([C@H](C)O)n1ncn(-c2ccc(N3CCN(c4ccc(OC[C@@H]5CO[C@@](Cn6cncn6)(c6ccc(F)cc6F)C5)cc4)CC3)cc2)c1=O` , equals 1 µg/mL

Observed MIC on Nakaseomyces glabratus, entry `Cc1c(/[N+]([O-])=N/C(N)=O)c(-c2cccs2)nn1C` , equals > 128 µg/mL

Observed MIC on Nakaseomyces glabratus, entry `Cc1c(/[N+]([O-])=N/C#N)c(-c2cccs2)nn1C` , equals 0.25 µg/mL

Observed MIC on Nakaseomyces glabratus, entry `Cc1cc(-c2nn(C)c(C)c2/[N+]([O-])=N/C#N)nn1C` , equals > 128 µg/mL

Observed MIC on Nakaseomyces glabratus, entry `C[C@@H]1[C@H](O)[C@@H](C)/C=C/C=C/C=C/C=C/C=C/C=C/C=C/[C@H](O[C@@H]2O[C@H](C)[C@@H](O)[C@H](N)[C@@H]2O)C[C@@H]2O[C@](O)(C[C@@H](O)C[C@@H](O)[C@H](O)CC[C@@H](O)C[C@@H](O)CC(=O)O[C@H]1C)C[C@H](O)[C@H]2C(=O)O` , equals 1 µg/mL

With those in mind, consider the next compound.
Observed MIC on Nakaseomyces glabratus, entry `Cc1nn(C)c(-c2cccs2)c1/[N+]([O-])=N/C#N` , equals 2 µg/mL
